Measured solubility at 24 h, listed per entry for reference.
Experiment: Kinetic solubility assay
Format: physicochemical
Settings: aqueous buffer, kinetic from dmso stock; phosphate buffer pH 7.4, 24 h, room temperature, LC-MS; read-out: Solubility PBS
Protocol: 10 µL of 10 mM DMSO stock solution of test and control compounds was added to 990 µL phosphate buffer with pH 7.4. […] Samples were centrifuged, and the supernatant was transferred into a filter plate. Then, the filtrates were quantified by an LC‐MS system to get solubility results.
Value expressed in µg/mL; do not type the unit.

* N#Cc1cccc(NC(=O)Nc2nc3ccc(C(=O)N4CCOCC4)cc3s2)c1 | 0.06

Please find the next molecule below.
*Q* Identify measured solubility at 24 h associated with COc1cccc(NC(=O)Nc2nc3ccc(C(=O)N4CCOCC4)cc3s2)c1
*A* 0.4
